Would you kindly list TMPRSS2 mRNA levels (% baseline value) of cells without AR agonist treatment for each of these substances?
Tested on: TMPRSS2 mRNA
ASSAY PROTOCOL: TMPRSS2 mRNA levels in LMR20 cells
Type: cell-based, human
ASSAY SETUP: LMR20 cells, no AR agonist, ASO 0.04 μM
Oligonucleotides are written 5' to 3', each unit as a sugar letter and its base; * is a phosphorothioate linkage, no mark a phosphodiester; rarer units and linkages stand in square brackets, end groups in braces. Plain capitals give the bases only. e = 2'-O-(2-methoxyethyl) (MOE); l = locked nucleic acid (LNA); k = constrained ethyl (cEt); [5mC] = 5-methylcytosine; d = 2'-deoxy (DNA)
# include the unit after the value

Bench note: what TMPRSS2 mRNA levels (% baseline value) of cells without AR agonist treatment did 554221 (ACCAAGTTTCTTCAGC; sugars from the 5' end l3 d10 l3, all phosphorothioate, methylation of C not given here) [compound 554221] show?
95 % baseline value

Request: 560131 (antisense kT*kT*kG*dA*dT*dT*dT*dA*dA*dT*dG*dG*kT*kT*kG*e[5mC]) [compound 560131]
92 % baseline value

Quick request: TMPRSS2 mRNA levels (% baseline value) of cells without AR agonist treatment for each listed item, please.
1. 569236 (antisense eT*kG*kA*kT*dT*dT*dA*dA*dT*dG*dG*kT*kT*kG*e[5mC]*eA) [compound 569236]
2. 549458 (kG*kT*kT*dG*dA*dT*dT*dT*dA*dA*dT*dG*dG*kT*kT*kG) [compound 549458]

96 % baseline value
110 % baseline value

====

Tested on: AR mRNA
ASSAY PROTOCOL: AR mRNA in LnCaP cells by free uptake (hAR_LTS00943)
Format: cell-based, human
ASSAY SETUP: 0.5 μM, 24 hrs
Oligonucleotides are written 5' to 3', each unit as a sugar letter and its base; * is a phosphorothioate linkage, no mark a phosphodiester; rarer units and linkages stand in square brackets, end groups in braces. Plain capitals give the bases only. e = 2'-O-(2-methoxyethyl) (MOE); l = locked nucleic acid (LNA); k = constrained ethyl (cEt); [5mC] = 5-methylcytosine; d = 2'-deoxy (DNA)
Classification scheme (Percent inhibition of AR mRNA): b0 (below 10%), b1 (10% to below 20%), b2 (20% or more)

Textbook exercise: identify the category of the substance given here, 579671 (antisense eT*kT*kG*eA*kT*kT*dT*dA*dA*dT*dG*dG*dT*kT*kG*k[5mC]) [compound 579671] , according to its measured value.
b1

Request: 583918 (kA*kG*kT*d[5mC]*dG*d[5mC]*dG*dA*d[5mC]*dT*d[5mC]*dT*dG*kG*kT*kA) [compound 583918]
b0

Request: 586124 (kG*kA*kT*dT*dT*dA*dA*dT*dG*dG*dT*dT*dG*k[5mC]*kA*kA; further chemistry not given here) [compound 586124]
b1

Request: 549372 (kA*kA*kG*dT*dT*dG*dT*dA*dG*dT*dA*dG*dT*k[5mC]*kG*k[5mC]) [compound 549372]
b2

Request: 579666 (antisense eT*kG*kA*eT*eT*kT*kA*dA*dT*dG*dG*dT*dT*dG*k[5mC]*kA) [compound 579666]
b2

Request: 569221 (antisense eT*eG*kA*kT*kT*dT*dA*dA*dT*dG*dG*dT*dT*kG*k[5mC]*kA) [compound 569221]
b2

Request: 554221 (ACCAAGTTTCTTCAGC; sugars from the 5' end l3 d10 l3, all phosphorothioate, methylation of C not given here) [compound 554221]
b0

Request: 584149 (kG*kT*k[5mC]*dA*dA*dT*dA*dT*d[5mC]*dA*dA*dA*dG*k[5mC]*kA*k[5mC]) [compound 584149]
b0

Continuing:
Textbook exercise: identify the category of the substance given here, 569216 (antisense eT*kG*kA*kT*dT*dT*dA*dA*dT*dG*dG*dT*kT*kG*k[5mC]*eA) [compound 569216] , according to its measured value.
b2

Request: 584269 (k[5mC]*k[5mC]*kT*dT*dA*dT*dG*dG*dA*dT*dG*d[5mC]*dT*kG*k[5mC]*kT) [compound 584269]
b0

Request: 579667 (antisense eT*kT*kG*eA*eT*kT*kT*dA*dA*dT*dG*dG*dT*dT*kG*k[5mC]) [compound 579667]
b0

Request: 569227 (antisense eT*eG*kA*kT*kT*dT*dA*dA*dT*dG*dG*dT*kT*kG*k[5mC]*eA) [compound 569227]
b0

Request: 560131 (antisense kT*kT*kG*dA*dT*dT*dT*dA*dA*dT*dG*dG*kT*kT*kG*e[5mC]) [compound 560131]
b1

Request: 584163 (kG*kA*kA*d[5mC]*dA*dT*dT*dA*dT*dT*dA*dG*dG*k[5mC]*kT*kA) [compound 584163]
b1

Request: 549458 (kG*kT*kT*dG*dA*dT*dT*dT*dA*dA*dT*dG*dG*kT*kT*kG) [compound 549458]
b2

Request: 569213 (antisense kT*kG*kA*dT*dT*dT*dA*dA*dT*dG*dG*dT*kT*kG*k[5mC]*eA) [compound 569213]
b2

Request: 569236 (antisense eT*kG*kA*kT*dT*dT*dA*dA*dT*dG*dG*kT*kT*kG*e[5mC]*eA) [compound 569236]
b2

Request: 586227 (kT*kG*kA*kT*kT*dT*dA*dA*dT*dG*dG*dT*dT*kG*k[5mC]*kA; antisense) [compound 586227]
b1
